Attribution: patent US11655235B2

# ASSAY_SYSTEM: DPP4 (Homo sapiens)
# Sequence (P27487 whole entry): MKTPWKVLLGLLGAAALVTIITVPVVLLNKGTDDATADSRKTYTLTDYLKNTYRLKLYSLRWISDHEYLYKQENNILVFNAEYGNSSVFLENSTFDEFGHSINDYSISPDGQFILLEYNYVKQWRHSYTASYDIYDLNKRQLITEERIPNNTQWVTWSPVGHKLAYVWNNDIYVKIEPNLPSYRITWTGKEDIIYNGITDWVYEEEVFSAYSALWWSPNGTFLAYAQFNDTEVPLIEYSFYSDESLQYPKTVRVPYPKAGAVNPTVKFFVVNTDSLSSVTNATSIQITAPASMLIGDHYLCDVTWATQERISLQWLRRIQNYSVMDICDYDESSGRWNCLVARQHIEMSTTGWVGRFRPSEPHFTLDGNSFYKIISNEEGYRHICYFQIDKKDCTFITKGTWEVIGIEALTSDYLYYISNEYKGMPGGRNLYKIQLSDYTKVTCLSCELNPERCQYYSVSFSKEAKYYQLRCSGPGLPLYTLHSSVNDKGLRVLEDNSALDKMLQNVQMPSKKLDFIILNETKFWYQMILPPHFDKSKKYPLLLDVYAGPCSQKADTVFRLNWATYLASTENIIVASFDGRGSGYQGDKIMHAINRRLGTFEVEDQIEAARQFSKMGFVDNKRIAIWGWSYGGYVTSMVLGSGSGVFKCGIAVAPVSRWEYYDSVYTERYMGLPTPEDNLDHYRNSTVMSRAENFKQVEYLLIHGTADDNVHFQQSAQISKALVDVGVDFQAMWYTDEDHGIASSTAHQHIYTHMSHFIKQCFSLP
# METHOD: DPP4 inhibition, fluorogenic substrate H-Gly-Pro-AMC
# Assay type: biochemical
# Design: purchased R&D Systems
# MEASUREMENT_CONTEXT: recombinant human DPP4
pIC50: −log10 of the molar value.
VALUE_KIND: pIC50

COMPOUND_SMILES | pIC50
COc1cccc2c(OC3CCN(CC(=O)N4C[C@@H](F)C[C@H]4C#N)CC3)ccnc12 | 5.25
N#Cc1ccc(N[C@H]2CCN(CC(=O)N3C[C@@H](F)C[C@H]3C#N)C2)c2cccnc12 | 5.59

a. Cc1cccc2c(OC3CCN(CC(=O)N4C[C@@H](F)C[C@H]4C#N)CC3)ccnc12
b. CN(Cc1ccccc1)C(=O)c1ccc(NC2CCN(CC(=O)N3CCC[C@H]3C#N)CC2)c2cccnc12
Problem: For a and b , which recorded pIC50 is lower? Bench note: the answer is the label of the chosen record.
Solution: b
(b: 4.54, a: 5.20)

----------
# ASSAY_SYSTEM: recombinant human PREP (Homo sapiens, UniProt P48147)
# Construct: purchased R&D System
# Sequence (P48147 whole entry): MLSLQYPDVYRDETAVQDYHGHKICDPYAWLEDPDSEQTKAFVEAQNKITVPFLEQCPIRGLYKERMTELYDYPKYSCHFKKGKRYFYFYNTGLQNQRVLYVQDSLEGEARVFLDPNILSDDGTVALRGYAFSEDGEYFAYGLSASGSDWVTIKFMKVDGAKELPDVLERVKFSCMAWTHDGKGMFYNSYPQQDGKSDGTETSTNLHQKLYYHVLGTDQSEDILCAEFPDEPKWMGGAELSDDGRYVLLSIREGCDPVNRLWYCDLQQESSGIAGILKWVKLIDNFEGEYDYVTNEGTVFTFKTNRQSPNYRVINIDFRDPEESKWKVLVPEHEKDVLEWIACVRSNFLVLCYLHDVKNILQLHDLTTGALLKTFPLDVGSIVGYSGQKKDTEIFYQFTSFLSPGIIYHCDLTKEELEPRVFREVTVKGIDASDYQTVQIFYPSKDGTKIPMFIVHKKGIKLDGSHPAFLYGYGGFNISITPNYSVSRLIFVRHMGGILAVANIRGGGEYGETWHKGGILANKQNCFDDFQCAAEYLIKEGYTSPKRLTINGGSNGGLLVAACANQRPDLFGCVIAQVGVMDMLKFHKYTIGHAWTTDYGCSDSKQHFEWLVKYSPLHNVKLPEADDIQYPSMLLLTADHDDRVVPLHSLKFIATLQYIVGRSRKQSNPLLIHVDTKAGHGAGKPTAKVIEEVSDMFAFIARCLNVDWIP
# METHOD: PREP inhibition, fluorogenic substrate Z-Gly-Pro-AMC
# Type: biochemical
# MEASUREMENT_CONTEXT: Inhibitory Activity (IC50, nM) PREP, recombinant human PREP
VALUE_KIND: IC50 (nM)

// below: answered compounds
COMPOUND_SMILES | VALUE_KIND | RECORDED_NUMBER
N#C[C@@H]1CCCN1C(=O)CN1CC[C@H](Nc2ccc(C(=O)Nc3cccnc3)c3ncccc23)C1 | IC50 | 429
N#Cc1cnc2cccc(N[C@H]3CCN(CC(=O)N4C[C@@H](F)C[C@H]4C#N)C3)c2c1 | IC50 | 2220

P. Cc1cccc2c(N[C@@H]3CCN(CC(=O)N4C[C@@H](F)C[C@H]4C#N)C3)ccnc12
Q. N#C[C@@H]1CCCN1C(=O)CN1CC[C@H](Nc2ccc(F)c3ncccc23)C1
Problem: Given the two records P and Q , choose the one whose IC50 value is lower. Respond with the label that goes with your answer.
Solution: P

----------
# ASSAY_SYSTEM: DPP4 (Homo sapiens)
# METHOD: DPP4 inhibition, fluorogenic substrate H-Gly-Pro-AMC
# Assay type: biochemical
# Parameters: purchased R&D Systems
# MEASUREMENT_CONTEXT: 25° C., H-Gly-Pro-AMC substrate
Listing: IC50 of selected compounds

Use these answered entries as a reference point.
COMPOUND_SMILES | RESULT
N#C[C@@H]1CC(F)(F)CN1C(=O)CN1CC[C@H](Nc2ccccc2-c2ccccc2)C1 | > 1000 nM
COc1ccc2c(C(=O)N[C@H]3CCN(CC(=O)N4C[C@@H](F)C[C@H]4C#N)C3)coc2c1 | 9030 nM
N#C[C@@H]1CC(F)(F)CN1C(=O)CN1CC[C@H](Oc2ccc(Cl)c3cccnc23)C1 | > 1000 nM

Problem: Indicate its recorded IC50; the compound in question is "COc1ccc2nccc(OC3CCN(CC(=O)N4C[C@@H](F)C[C@H]4C#N)CC3)c2c1"
Solution: > 10000 nM

Problem: Give reported IC50 value for "N#C[C@@H]1C[C@H](F)CN1C(=O)CN1CC[C@H](Nc2cncc3ccoc23)C1"
Solution: 2630 nM

Problem: Please report IC50 for the following compound: "N#C[C@@H]1CC(F)(F)CN1C(=O)CN1CC[C@H](Nc2ccnc3ccccc23)C1"
Solution: > 1000 nM

Problem: Give IC50 for the following compound: "N#C[C@@H]1CC(F)(F)CN1C(=O)CN1CC[C@H](Oc2cccc3[nH]c(=O)ccc23)C1"
Solution: > 1000 nM

Problem: Please indicate IC50 recorded for "COc1cc2nccc(O[C@H]3CCN(CC(=O)N4CCC[C@H]4C#N)C3)c2cc1OC"
Solution: > 1000 nM
